- Test system: S. aureus ATCC 29213
- Procedure Details: In vitro susceptibility, broth microdilution MIC
- Type: cell-based, Staphylococcus aureus
- Conditions: Staphylococcus aureus, ATCC29213, S. aureus (ATCC29213), Table 9; read-out: MIC (μg/mL) H
Measured Endpoint: MIC (µg/mL)
API: value field is a number in µg/mL; no unit string.

// MIC value for O=C(O)c1c(/C=C/c2ccc(Cl)cc2)[nH]c2cc(Br)ccc12 : 16

// MIC value for COc1cccc(OC)c1C(=O)N[C@@H]1C(=O)N2[C@@H]1SC(C)(C)[C@@H]2C(=O)O [Methicillin, methicillin, reference compound] : 2

// MIC value for COC(=O)c1c(/C=C/c2ccc(Cl)cc2)[nH]c2cc(Br)ccc12 : 2

// MIC value for O=C(c1c(-c2cc3cc(Cl)ccc3[nH]2)[nH]c2cc(Br)ccc12)C(F)(F)F : 1

// MIC value for O=C(c1c(/C=C/c2ccc(Cl)cc2)[nH]c2cc(Br)ccc12)C(F)(F)F : 2

// MIC value for O=C(c1c(CCc2ccc(Cl)cc2)[nH]c2cc(Br)ccc12)C(F)(F)F : 1.5
